Method description: in vitro
Type: in vitro ADME
Assay context: rat, plasma
Endpoint: half-life at 4300 µM

Asked: Quick one: half-life at 4300 µM for COc1ccc(CCNC(=O)OCc2oc(=O)oc2C)cc1OC ?
Given back: 11 min
